Experimental Target: CDK6/cyclin D3 (Homo sapiens, UniProt Q00534)
Sequence (P30281 whole entry): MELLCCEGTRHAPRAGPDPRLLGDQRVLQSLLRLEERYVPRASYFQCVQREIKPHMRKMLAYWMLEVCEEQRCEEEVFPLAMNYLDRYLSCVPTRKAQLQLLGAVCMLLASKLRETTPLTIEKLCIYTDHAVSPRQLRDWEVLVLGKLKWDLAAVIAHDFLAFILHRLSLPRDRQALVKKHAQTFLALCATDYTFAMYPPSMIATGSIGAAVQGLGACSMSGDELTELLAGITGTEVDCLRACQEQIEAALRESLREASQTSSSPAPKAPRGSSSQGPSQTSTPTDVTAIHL
Sequence (Q00534 whole entry): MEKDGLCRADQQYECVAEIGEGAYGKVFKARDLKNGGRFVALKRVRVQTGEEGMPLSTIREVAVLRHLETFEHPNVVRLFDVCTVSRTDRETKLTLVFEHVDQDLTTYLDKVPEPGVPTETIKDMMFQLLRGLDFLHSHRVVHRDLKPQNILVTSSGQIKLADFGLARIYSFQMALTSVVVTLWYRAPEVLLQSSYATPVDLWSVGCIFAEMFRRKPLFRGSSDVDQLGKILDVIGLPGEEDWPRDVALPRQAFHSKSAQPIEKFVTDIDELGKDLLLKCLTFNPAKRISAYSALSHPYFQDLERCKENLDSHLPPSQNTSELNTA
Protocol Notes: Inhibition of full length human N-terminal His6-tagged CDK6/N-terminal GST-tagged CyclinD3 expressed in sf21 cells after 10 mins in presence of [gamma32P]ATP by beta counting method
The reader will find reported log10 IC50 values listed item by item below.
Property Name: log10 IC50 (log10 of the value in nM)

| Molecule | Experimental Target | log10 IC50 |
| --- | --- | --- |
| COc1ccc2c(c1)/C(=C1/Nc3ccccc3/C1=N\O)C(=O)N2 | CDK6/cyclin D3 (Homo sapiens, UniProt Q00534) | 2.20 |
| Cc1ccc2c(c1)/C(=C1/Nc3ccccc3/C1=N\OCCO[C@@H]1O[C@H](CO)[C@@H](O)[C@H](O)[C@H]1O)C(=O)N2 | CDK6/cyclin D3 (Homo sapiens, UniProt Q00534) | 3.22 |
| COc1ccc2c(c1)/C(=C1\Nc3ccccc3\C1=N/OCCO[C@@H]1O[C@H](CO)[C@@H](O)[C@H](O)[C@H]1O)C(=O)N2 | CDK6/cyclin D3 (Homo sapiens, UniProt Q00534) | 2.61 |
| O=C1Nc2ccccc2/C1=C1/Nc2ccccc2/C1=N\OCC(O)CO (stereo not given) | CDK6/cyclin D3 (Homo sapiens, UniProt Q00534) | 1.88 |
| O=C1Nc2ccccc2/C1=C1/Nc2ccccc2/C1=N\OCCO[C@@H]1O[C@H](CO)[C@@H](O)[C@H](O)[C@H]1O | CDK6/cyclin D3 (Homo sapiens, UniProt Q00534) | 3.13 |

----------
Experimental Target: Cyclin-dependent kinase 2/cyclin E1 (Homo sapiens)
Protocol Notes: Inhibition of full length human C-terminal His6-tagged CDK2/N-terminal GST-tagged CyclinE expressed in baculovirus infected sf21 cells after 10 mins in presence of [gamma32P]ATP by beta counting method
pIC50: −log10 of the molar value.
Reported pIC50 values follow for various compounds
Property Name: pIC50

| Compound | Reported Result |
| --- | --- |
| COc1ccc2c(c1)/C(=C1/Nc3ccccc3/C1=N\OCC(O)CO)C(=O)N2 (centres undefined) | 7.37 |
| COc1ccc2c(c1)/C(=C1/Nc3ccccc3/C1=N\O)C(=O)N2 | 7.27 |
| Cc1ccc2c(c1)/C(=C1/Nc3ccccc3/C1=N\OCCO[C@@H]1O[C@H](CO)[C@@H](O)[C@H](O)[C@H]1O)C(=O)N2 | 6.04 |
| O=C1Nc2ccccc2/C1=C1/Nc2ccccc2/C1=N\OCCC(O)CO (centres undefined) | 6.64 |

----------
Experimental Target: Cyclin-dependent kinase 2/cyclin E1 (Homo sapiens, UniProt P24941)
Protocol Notes: Inhibition of CDK2/CyclinE (unknown origin)

| Structure | IC50 |
| --- | --- |
| O=C1Nc2ccccc2/C1=C1/Nc2ccccc2C1=O | 2.2 µM |

----------
Experimental Target: CDK2/Cyclin A2 (Homo sapiens)
Protocol Notes: Inhibition of full length human C-terminal His6-tagged CDK2/N-terminal GST-tagged CyclinA expressed in baculovirus infected sf21 cells after 10 mins in presence of [gamma32P]ATP by beta counting method
pIC50: −log10 of the molar value.
Answer condition not met if pIC50 is under 6, and condition met if it is 6 or more.

| Molecule | Class Assignment |
| --- | --- |
| O=C1Nc2ccccc2/C1=C1/Nc2ccccc2/C1=N\OCC(O)CO (stereo unspecified) | condition met |
| O=C1Nc2ccccc2/C1=C1/Nc2ccccc2/C1=N\OCCO[C@@H]1O[C@H](CO)[C@@H](O)[C@H](O)[C@H]1O | condition not met |
| Cc1ccc2c(c1)/C(=C1/Nc3ccccc3/C1=N\OCCO[C@@H]1O[C@H](CO)[C@@H](O)[C@H](O)[C@H]1O)C(=O)N2 | condition not met |
| O=C1Nc2ccccc2/C1=C1/Nc2ccccc2C1=O | condition not met |
| COc1ccc2c(c1)/C(=C1/Nc3ccccc3/C1=N\O)C(=O)N2 | condition met |

Ref: ChEMBL document CHEMBL4014343
